- measured-target: Androgen Receptor (AR) (Homo sapiens, UniProt P10275, T878A)
- Construct: cell based immuno-fluorescence assay using the LNCaP prostate epithelial cell line; endogenous in cells; host or cells: LNCaP clone FGC (ATCC CRL-1740)
- experiment-summary: LNCaP Androgen Receptor Down-regulation Cell Assay (immunofluorescence end point)
- Type: cell-based
- settings: LNCaP prostate carcinoma cells, compound incubation 20-22 hours, 50% reduction of the AR signal; read-out: Androgen Receptor Down-regulation Assay (a) IC50/μM
reported-metric: DC50 (µM)
One number for each entry, in µM.

Observe how each entry below is paired with its result.
molecule	DC50 (µM)
CCN(CC)c1ccc(CN2CCN(c3ccc4nnc(C(F)(F)F)n4n3)CC2)cc1 [Example 128]	2.3
Fc1ccc(CN2CCN(c3ccc4nnc(C(F)F)n4n3)CC2)c(F)c1F [Example 823]	4.7

// next item, DC50 requested
**Query** I am curious: what DC50 value has been reported for FC(F)(F)c1ccccc1OCC1CCN(c2ccc3nnc(C(F)(F)F)n3n2)CC1 [Example 471] ?
**Result** 2

----------
- measured-target: Androgen Receptor (AR) (Homo sapiens, UniProt P10275, T878A)
- Construct: cell based immuno-fluorescence assay using the LNCaP prostate epithelial cell line; endogenous in cells; host or cells: LNCaP clone FGC (ATCC CRL-1740)
- experiment-summary: LNCaP Androgen Receptor Down-regulation Cell Assay (immunofluorescence end point)
- Format: cell-based
- settings: LNCaP prostate carcinoma cells, compound incubation 20-22 hours, 50% reduction of the AR signal; read-out: Androgen Receptor Down-regulation Assay (a) IC50/μM
- Method: The ability of compounds to reduce Androgen Receptor (AR) numbers was assessed in a cell based immuno-fluorescence assay using the LNCaP prostate epithelial cell line. a) LNCaP Androgen Receptor Down-regulation Cell Assay […] Immunostaining was performed at room temperature. […] Then 50 μl of PBST was added to each well and plates were covered with a black plate seal and stored at 4° C. before being read. Plates were read within six hours of completing the immunostaining. […]
reported-metric: DC50 (µM)
One number for each entry, in µM.

Observe how each entry below is paired with its result.
Cc1cc(CNC(=O)c2ccc(C3CCN(c4ccc5nnc(C(F)(F)F)n5n4)CC3)cc2)no1 0.92
COc1ccc(C2CCN(c3ccc4nnc(C(F)(F)F)n4n3)CC2)cc1 1

// next item, DC50 requested
**Query** I am curious: what DC50 value has been reported for `FC(F)(F)c1nnc2ccc(N3CCN(Cc4c[nH]c5ccc(Br)cc45)CC3)nn12` ?
**Result** 0.8

----------
Exercise: state measured DC50 for each of the compounds provided.
- measured-target: Androgen Receptor (AR) (Homo sapiens, UniProt P10275, T878A)
- Construct: cell based immuno-fluorescence assay using the LNCaP prostate epithelial cell line; endogenous in cells; host or cells: LNCaP clone FGC (ATCC CRL-1740)
- experiment-summary: LNCaP Androgen Receptor Down-regulation Cell Assay (immunofluorescence end point)
- Format: cell-based
- settings: LNCaP prostate carcinoma cells, compound incubation 20-22 hours, 50% reduction of the AR signal; read-out: Androgen Receptor Down-regulation Assay (a) IC50/μM
One number for each entry, in µM.

Observe how each entry below is paired with its result.
compound	DC50 (µM)
FC(F)(F)c1cccc(CN2CCN(c3ccc4nnc(C(F)(F)F)n4c3)CC2)c1 [Example 185]	0.68
Cc1cc(NCC2CC[C@@H]3CN(c4ccc5nnc(C(F)(F)F)n5n4)CCN3C2)c2ccccc2n1 (some centres unmarked) [Example 28]	2.8
FC(F)(F)c1nnc2ccc(N3CCC(OCC4CC4)CC3)nn12 [Example 304]	1.8
COCCN(C)C(=O)c1cccc(OC2CCN(c3ccc4nnc(C(F)(F)F)n4n3)CC2)c1 [Example 699]	2.1
CC(=O)N1CCN(CCOc2ccc(C3CCN(c4ccc5nnc(C(F)(F)F)n5n4)CC3)cc2)CC1 [Example 852]	0.29
Cc1cc(CN2CCN(c3ccc4nnc(C(F)(F)F)n4n3)CC2)oc1C [Example 98]	2.3

For every record below, what is its DC50?
1. FC(F)(F)c1nnc2ccc(N3CCC(COc4ncccn4)CC3)nn12 [Example 558]
2. FC(F)(F)c1nnc2ccc(N3CCC(Cc4ccccn4)CC3)nn12 [Example 537]
3. FC(F)(F)c1cccc(CN2CCCN(c3ccc4nnc(C(F)(F)F)n4n3)CC2)c1 [Example 179]
4. FC(F)(F)c1nnc2ccc(N3CCN(Cc4cnccn4)CC3)nn12 [Example 55]
5. Cc1ccnc(C2(O)CCN(c3ccc4nnc(C(F)(F)F)n4n3)CC2)c1 [Example 322]

**Result**
1: 2.6; 2: 3; 3: 0.59; 4: 8.8; 5: 9.6

----------
Exercise: state measured DC50 for each of the molecules provided.
- measured-target: Androgen Receptor (AR) (Homo sapiens, UniProt P10275, T878A)
- Construct: cell based immuno-fluorescence assay using the LNCaP prostate epithelial cell line; endogenous in cells; host or cells: LNCaP clone FGC (ATCC CRL-1740)
- experiment-summary: LNCaP Androgen Receptor Down-regulation Cell Assay (immunofluorescence end point)
- Format: cell-based
- settings: LNCaP prostate carcinoma cells, compound incubation 20-22 hours, 50% reduction of the AR signal; read-out: Androgen Receptor Down-regulation Assay (a) IC50/μM
Give bare numbers, in µM.

For every record below, what is its DC50?
1. N#Cc1cccc(CN2CCN(c3ccc4nnc(C(F)F)n4n3)CC2)c1
2. FC(F)(F)c1nnc2ccc(N3CC[C@@H](Oc4ccncc4)C3)nn12

**Result**
1: 5; 2: 5

For every record below, what is its DC50?
1. CCOC(=O)/C=C/c1ccc(CN2CCN(c3ccc4nnc(C(F)(F)F)n4n3)CC2)cc1
2. Fc1ccc(F)c(CN2CCN(c3ccc4nnc(C(F)(F)F)n4n3)CC2)c1F
3. CN(C)CCOc1ccc(OC2CCN(c3ccc4nnc(C(F)(F)F)n4n3)CC2)cc1
4. CN(C)CCNC(=O)c1cccc(OC2CCN(c3ccc4nnc(C(F)(F)F)n4n3)CC2)c1
5. FC(F)(F)c1nnc2ccc(N3CCC(Oc4ccccc4Cl)CC3)nn12

**Result**
1. 3.6
2. 2.5
3. 0.98
4. 4.2
5. 1.6

----------
- measured-target: Androgen Receptor (AR) (Homo sapiens, UniProt P10275, T878A)
- Construct: cell based immuno-fluorescence assay using the LNCaP prostate epithelial cell line; endogenous in cells; host or cells: LNCaP clone FGC (ATCC CRL-1740)
- Sequence (P10275 1-920 T878A): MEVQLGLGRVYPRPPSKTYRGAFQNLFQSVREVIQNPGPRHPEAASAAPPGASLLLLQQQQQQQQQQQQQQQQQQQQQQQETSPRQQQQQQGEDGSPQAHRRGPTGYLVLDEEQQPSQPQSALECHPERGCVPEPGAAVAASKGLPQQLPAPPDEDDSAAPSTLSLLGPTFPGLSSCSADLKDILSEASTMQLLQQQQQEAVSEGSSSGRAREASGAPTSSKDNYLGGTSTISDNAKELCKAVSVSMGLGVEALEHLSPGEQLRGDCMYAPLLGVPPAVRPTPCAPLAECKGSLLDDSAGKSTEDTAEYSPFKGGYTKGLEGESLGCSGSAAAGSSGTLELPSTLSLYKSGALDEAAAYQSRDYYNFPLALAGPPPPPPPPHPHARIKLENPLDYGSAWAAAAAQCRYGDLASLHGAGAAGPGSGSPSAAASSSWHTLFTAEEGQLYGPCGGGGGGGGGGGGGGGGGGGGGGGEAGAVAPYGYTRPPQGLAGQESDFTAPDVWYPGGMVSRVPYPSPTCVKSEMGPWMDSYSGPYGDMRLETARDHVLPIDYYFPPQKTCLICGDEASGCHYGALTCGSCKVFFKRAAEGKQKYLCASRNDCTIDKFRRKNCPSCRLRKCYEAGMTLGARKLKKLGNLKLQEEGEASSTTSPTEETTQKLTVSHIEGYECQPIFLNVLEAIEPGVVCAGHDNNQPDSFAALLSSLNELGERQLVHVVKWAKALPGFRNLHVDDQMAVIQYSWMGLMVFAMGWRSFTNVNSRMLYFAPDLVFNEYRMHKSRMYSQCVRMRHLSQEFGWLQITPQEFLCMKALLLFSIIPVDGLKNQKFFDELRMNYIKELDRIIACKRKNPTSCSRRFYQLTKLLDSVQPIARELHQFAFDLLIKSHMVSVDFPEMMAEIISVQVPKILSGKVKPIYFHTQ
- experiment-summary: LNCaP Androgen Receptor Down-regulation Cell Assay (immunofluorescence end point)
- Assay type: cell-based
- settings: LNCaP prostate carcinoma cells, compound incubation 20-22 hours, 50% reduction of the AR signal
reported-metric: IC50 (µM)
Answers are plain numbers, in µM.

**Query** I am curious: what IC50 value has been reported for `CS(=O)(=O)Oc1cccc(CN2CCN(c3ccc4nnc(C(F)(F)F)n4n3)CC2)c1` ?
**Result** 3.1

----------
Exercise: state measured DC50 for each of the molecules provided.
- measured-target: Androgen Receptor (AR) (Homo sapiens, UniProt P10275, T878A)
- Construct: cell based immuno-fluorescence assay using the LNCaP prostate epithelial cell line; endogenous in cells; host or cells: LNCaP clone FGC (ATCC CRL-1740)
- Sequence (P10275 1-920 T878A): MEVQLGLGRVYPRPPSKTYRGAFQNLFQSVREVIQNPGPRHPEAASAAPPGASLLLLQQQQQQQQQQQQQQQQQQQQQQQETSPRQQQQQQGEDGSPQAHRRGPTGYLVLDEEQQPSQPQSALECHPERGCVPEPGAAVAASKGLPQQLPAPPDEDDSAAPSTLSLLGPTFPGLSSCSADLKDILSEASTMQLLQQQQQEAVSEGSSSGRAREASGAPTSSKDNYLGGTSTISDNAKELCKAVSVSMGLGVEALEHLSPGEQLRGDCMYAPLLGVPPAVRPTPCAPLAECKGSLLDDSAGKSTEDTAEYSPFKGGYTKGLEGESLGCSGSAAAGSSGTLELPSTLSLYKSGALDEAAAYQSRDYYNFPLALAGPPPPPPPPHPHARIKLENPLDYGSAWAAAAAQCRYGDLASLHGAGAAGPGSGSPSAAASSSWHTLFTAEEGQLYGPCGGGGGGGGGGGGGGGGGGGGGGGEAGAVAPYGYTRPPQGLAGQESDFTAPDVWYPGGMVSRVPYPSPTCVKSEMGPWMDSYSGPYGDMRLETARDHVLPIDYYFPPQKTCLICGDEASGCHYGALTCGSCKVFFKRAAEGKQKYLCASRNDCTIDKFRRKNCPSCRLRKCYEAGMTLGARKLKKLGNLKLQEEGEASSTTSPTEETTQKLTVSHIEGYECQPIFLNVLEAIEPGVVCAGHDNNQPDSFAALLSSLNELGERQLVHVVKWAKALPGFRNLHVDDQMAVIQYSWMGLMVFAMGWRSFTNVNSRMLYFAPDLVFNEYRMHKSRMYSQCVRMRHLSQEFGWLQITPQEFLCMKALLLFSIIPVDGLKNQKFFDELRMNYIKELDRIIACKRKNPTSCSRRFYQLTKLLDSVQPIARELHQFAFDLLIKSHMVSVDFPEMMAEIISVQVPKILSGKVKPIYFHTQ
- experiment-summary: LNCaP Androgen Receptor Down-regulation Cell Assay (immunofluorescence end point)
- Type: cell-based
- settings: LNCaP prostate carcinoma cells, compound incubation 20-22 hours, 50% reduction of the AR signal; read-out: Androgen Receptor Down-regulation Assay (a) IC50/μM
Answers are plain numbers, in µM.

FC(F)(F)c1nnc2ccc(N3CCN(Cc4c[nH]c5cccc(Cl)c45)CC3)nn12 2.4

For every record below, what is its DC50?
1. CCNC(=O)c1cccc(OC2CCN(c3ccc4nnc(C(F)(F)F)n4n3)CC2)c1
2. Fc1cccc(CN2CCN(c3ccc4nnc(C(F)F)n4n3)CC2)c1Cl
3. FC(F)(F)c1nnc2ccc(N3CCC(Oc4cncc(Cl)c4)CC3)nn12
4. FC(F)(F)c1nnc2ccc(N3CCN(c4ccc(OCCn5ccnc5)cc4)CC3)nn12
5. N#Cc1ccc(CN2CCN(c3ccc4nnc(C(F)(F)F)n4n3)CC2)cn1
6. O=C(NCCn1cccn1)c1cccc(OC2CCN(c3ccc4nnc(C(F)(F)F)n4n3)CC2)c1

**Result**
[3.3, 1.7, 4.3, 0.9, 7.6, 5.3]

**Query** Query for Androgen Receptor (AR) (Homo sapiens, UniProt P10275, T878A): what DC50 does the record show for `CC(C)(C)OC(=O)N1[C@@H]2CC[C@H]1CN(c1ccc3nnc(C(F)(F)F)n3n1)C2` ?
**Result** 3
